assayMetric: melting point

[ask] Give its melting point value. Item: CCOC(=O)Nc1nc(-c2ccccc2)c(-c2nc3ccccc3c(=O)n2-c2cccc(OC)c2)s1
[reply] 204 to 205 °C

[ask] Fill in the blank: the reported melting point of COC(=O)Nc1nc(-c2ccccc2)c(-c2nc3ccccc3c(=O)n2-c2ccccc2OC)s1 is ____.
[reply] 228 to 230 °C

[ask] Requested field: melting point. Item: COC(=O)Nc1nc(C)c(-c2nc3ccccc3c(=O)n2-c2ccc(C(C)=O)cc2)s1
[reply] 232 to 234 °C

[ask] Please give the measured melting point for this compound: COc1ccc(-n2c(-c3cc(-c4ccccc4)c(N4CCOCC4)s3)nc3ccccc3c2=O)cc1
[reply] 164 to 165 °C

[ask] I would be grateful if you could share the reported melting point for COC(=O)Nc1nc(-c2ccccc2)c(-c2nc3ccccc3c(=O)n2-c2ccc(OC)cc2)s1 .
[reply] 272 to 274 °C

[ask] So what's the measured melting point for this one? COC(=O)Nc1nc(C)c(-c2nc3ccccc3c(=O)n2-c2cccc(C)c2)s1
[reply] 232 to 233 °C

[ask] Please look up its melting point: Cc1ccc(-n2c(-c3sc(Nc4ccccc4)nc3C)nc3ccccc3c2=O)cc1
[reply] 256 to 257 °C

[ask] Could you share which melting point value was measured for CCOC(=O)Nc1nc(C)c(-c2nc3ccccc3c(=O)n2-c2cccc(C)c2)s1 ?
[reply] 210 to 211 °C

[ask] Can you share its melting point? I mean this compound: COc1cccc(-n2c(-c3sc(Nc4ccccc4)nc3C)nc3ccccc3c2=O)c1
[reply] > 275 °C

[ask] Entry under review: CNc1nc(-c2ccccc2)c(-c2nc3ccccc3c(=O)n2-c2ccc(C)cc2)s1 . Reported melting point?
[reply] 192 to 193 °C

[ask] For CNc1nc(-c2ccccc2)c(-c2nc3ccccc3c(=O)n2-c2ccc(C(C)=O)cc2)s1 , what is its reported melting point?
[reply] 239 to 240 °C

[ask] Suppose we examine the compound Cc1cccc(-n2c(-c3sc(Nc4ccccc4)nc3-c3ccccc3)nc3ccccc3c2=O)c1 ; what melting point value has been reported?
[reply] 105 to 107 °C

[ask] Reported melting point, compound Cc1ccc(C(=O)Nc2nc(-c3ccccc3)c(-c3nc4ccccc4c(=O)n3-c3ccccc3Cl)s2)cc1 : ____
[reply] > 275 °C

[ask] State the recorded melting point for this entry: Cc1ccc(C(=O)Nc2nc(-c3ccccc3)c(-c3nc4ccccc4c(=O)n3-c3ccccc3C)s2)cc1
[reply] > 275 °C

[ask] Form field: reported melting point of Cc1cccc(-n2c(-c3sc(NC(=O)c4ccccc4)nc3-c3ccccc3)nc3ccccc3c2=O)c1
[reply] > 275 °C

[ask] Entry CC(=O)c1ccc(-n2c(-c3sc(Nc4ccccc4)nc3-c3ccccc3)nc3ccccc3c2=O)cc1 has what melting point?
[reply] 223 to 225 °C

[ask] For the compound Cc1nc(NC(=O)c2ccco2)sc1C(=O)c1sc(NC(=O)c2ccco2)nc1C , what melting point is on record?
[reply] 198 to 199 °C
